Biological target: CDK1/Cyclin B1 (Homo sapiens)
Sequence (P06493 whole entry): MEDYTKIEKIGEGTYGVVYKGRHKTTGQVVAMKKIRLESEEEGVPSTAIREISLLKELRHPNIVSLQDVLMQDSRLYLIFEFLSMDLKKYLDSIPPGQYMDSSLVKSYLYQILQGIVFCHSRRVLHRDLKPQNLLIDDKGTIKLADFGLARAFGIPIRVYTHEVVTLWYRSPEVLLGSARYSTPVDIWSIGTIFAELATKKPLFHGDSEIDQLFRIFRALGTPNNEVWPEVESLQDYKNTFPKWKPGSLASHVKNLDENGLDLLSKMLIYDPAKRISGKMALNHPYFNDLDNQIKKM
Sequence (P14635 whole entry partner): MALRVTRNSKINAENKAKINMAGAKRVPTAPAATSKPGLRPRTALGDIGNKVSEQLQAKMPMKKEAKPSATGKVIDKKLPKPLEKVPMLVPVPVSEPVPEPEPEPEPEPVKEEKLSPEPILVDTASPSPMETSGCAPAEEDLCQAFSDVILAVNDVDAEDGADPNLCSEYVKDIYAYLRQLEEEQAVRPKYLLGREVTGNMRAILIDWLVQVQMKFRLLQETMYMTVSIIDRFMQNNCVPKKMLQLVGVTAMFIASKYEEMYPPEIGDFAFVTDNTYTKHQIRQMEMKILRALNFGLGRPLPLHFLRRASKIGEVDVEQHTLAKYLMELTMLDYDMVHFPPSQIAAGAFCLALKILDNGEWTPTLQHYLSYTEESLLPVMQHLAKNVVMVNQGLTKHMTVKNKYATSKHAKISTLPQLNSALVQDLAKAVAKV
Test: CDK1/Cyclin B1 TR-FRET biochemical assay, 1 mM ATP
Settings: 0.15 μM Rb (Ser780)-biotin substrate, 90 min reaction, Table 2
pIC50: −log10 of the molar value.
Assign pIC50 to each entry below.

Query: Quick check: pIC50 on CDK1/Cyclin B1 (Homo sapiens), item Cc1cccc(C2CCC(c3cc(Nc4ccc5c(c4F)CS(=O)(=O)N5)n[nH]3)C2)n1 (stereo not drawn) [Example 159] ?
Result: < 5.00

Query: Proceed to Cc1cccc(C2CCC(c3cc(Nc4ccc5c(c4F)CNS5(=O)=O)n[nH]3)C2)n1 (stereo not drawn) [Example 120]
Result: < 5.00

Query: Here is the next compound: CC(C)c1cnc(C2CCC(c3cc(Nc4ccc5c(c4F)CNS5(=O)=O)n[nH]3)C2)o1 (single isomer, unassigned) [Example 109c]
Result: < 5.00

The reported numbers originate from patent US20260200897A1.
